Assay: Cytotoxicity against CRL8155 cell line
Format: cell-based
Conditions: human, CRL8155 cells (lymphoblast, spleen), Table 3; read-out: Cytotoxicity (CRL8155) EC50
Please go through the items and note down their EC50.

Exam item: What does the record list as EC50 for CCOc1ccc2cc(-c3nn(C4CCCCC4)c(N)c3C(N)=O)ccc2n1 ?
Marked response: > 40 µM

Exam item: What does the record list as EC50 for CC(C)(C)n1nc(-c2ccc3nc(OC4CCC4)ccc3c2)c(C(N)=O)c1N ?
Marked response: > 40 µM

Exam item: What does the record list as EC50 for CCOc1ccc2cc(-c3nn(C(C)(C)C)c(N)c3C(N)=O)cnc2c1 ?
Marked response: > 30 µM

Exam item: What does the record list as EC50 for CCOc1ccc2cc(-c3nn(C4CCCC4)c(N)c3C(N)=O)cnc2c1 ?
Marked response: > 40 µM

Exam item: What does the record list as EC50 for NC(=O)c1c(-c2ccc3nc(OC4CCC4)ccc3c2)nn(C2CCC2)c1N ?
Marked response: > 40 µM

----------
Biological target: CpCDPK1 (Cryptosporidium parvum (strain Iowa II), UniProt A3FQ16)
Sequence (A3FQ16 1-538): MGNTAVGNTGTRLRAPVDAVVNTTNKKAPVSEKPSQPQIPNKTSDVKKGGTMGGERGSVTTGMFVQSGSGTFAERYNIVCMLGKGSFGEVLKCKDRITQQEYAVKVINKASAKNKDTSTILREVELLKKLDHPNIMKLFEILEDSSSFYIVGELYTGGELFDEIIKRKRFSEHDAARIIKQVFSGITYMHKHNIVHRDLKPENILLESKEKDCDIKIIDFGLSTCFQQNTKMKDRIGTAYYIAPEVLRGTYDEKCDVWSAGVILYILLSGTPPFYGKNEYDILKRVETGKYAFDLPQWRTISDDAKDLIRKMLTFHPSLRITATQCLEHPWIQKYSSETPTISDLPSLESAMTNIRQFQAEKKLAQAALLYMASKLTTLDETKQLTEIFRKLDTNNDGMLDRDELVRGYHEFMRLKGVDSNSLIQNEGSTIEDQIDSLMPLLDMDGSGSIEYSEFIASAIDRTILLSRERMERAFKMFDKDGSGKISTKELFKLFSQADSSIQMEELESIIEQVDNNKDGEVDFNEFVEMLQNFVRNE
Assay: biochemical
Details: Table 1; KinaseGlo, Syntide 2 peptide substrate; read-out: CpCDPK1 IC50
Please go through the items and note down their IC50.
Number only, in nM; omit the unit.

Exam item: What does the record list as IC50 for NC(=O)c1c(-c2ccc3ccccc3c2)nn(CC2CCCCC2)c1N ?
Marked response: 150

Exam item: What does the record list as IC50 for CC(C)Oc1ccc2cc(-c3nn(C(C)(C)C)c(N)c3C(N)=O)cnc2c1 ?
Marked response: 5

Exam item: What does the record list as IC50 for CCn1nc(-c2ccc3ccccc3c2)c(C(N)=O)c1N ?
Marked response: 11

Exam item: What does the record list as IC50 for CC(C)(C)n1nc(-c2cnc3cc(OC(F)(F)F)ccc3c2)c(C(N)=O)c1N ?
Marked response: 38

Exam item: What does the record list as IC50 for Nc1ncnc2c1c(-c1ccc3ccccc3c1)nn2CC1CCNCC1 [Compound 7, reference compound] ?
Marked response: 1

Exam item: What does the record list as IC50 for CCOc1ccc2cc(-c3nn(C(C)CO)c(N)c3C(N)=O)cnc2c1 (stereo not drawn) ?
Marked response: 9

Exam item: What does the record list as IC50 for COc1ccc2cc(-c3nn(CC4CCN(C)CC4)c(N)c3C(N)=O)ccc2c1 ?
Marked response: 14

Exam item: What does the record list as IC50 for CCOc1ccc2cc(-c3nn(C(C)C(C)C)c(N)c3C(N)=O)cnc2c1 (stereo not drawn) ?
Marked response: 5

Exam item: What does the record list as IC50 for CC(C)(C)n1nc(-c2cnc3cc(OC4CC4)ccc3c2)c(C(N)=O)c1N ?
Marked response: 5

Exam item: What does the record list as IC50 for CCOc1ccc2cc(-c3nn(CC4CC4)c(N)c3C(N)=O)ccc2n1 ?
Marked response: 3

Exam item: What does the record list as IC50 for CCOc1ccc2cc(-c3nn(CC4CCCCC4)c(N)c3C(N)=O)cnc2c1 ?
Marked response: 30

Exam item: What does the record list as IC50 for NC(=O)c1c(-c2cnc3cc(OC4CCC4)ccc3c2)nn(C2CCCCC2)c1N ?
Marked response: 8

Exam item: What does the record list as IC50 for CCOc1ccc2cc(-c3nn4c(c3C(N)=O)NC(=O)C4)cnc2c1 ?
Marked response: 577

Exam item: What does the record list as IC50 for CCOc1ccc2cc(-c3nn(C4CCCCC4)c(N)c3C(N)=O)ccc2n1 ?
Marked response: 2

Exam item: What does the record list as IC50 for CC(C)(C)n1nc(-c2ccc3ncccc3c2)c(C(N)=O)c1N ?
Marked response: 70

Exam item: What does the record list as IC50 for NC(=O)c1c(-c2ccc3nc(OC4CCC4)ccc3c2)nn(C2CCCCC2)c1N ?
Marked response: 13

Exam item: What does the record list as IC50 for CC(C)(C)n1nc(-c2cnc3cc(OCC4CC4)ccc3c2)c(C(N)=O)c1N ?
Marked response: 9

----------
Molecular target: CpCDPK1 (Cryptosporidium parvum (strain Iowa II), UniProt A3FQ16)
Test: biochemical
Conditions: Table 1; KinaseGlo, Syntide 2 peptide substrate; read-out: CpCDPK1 IC50
Criterion: IC50 strictly less than 20 nM. Met: true (1). Not met: false (0).

Exam item: Take the compound NC(=O)c1c(-c2ccc3nc(OC4CCC4)ccc3c2)nn(C2CCCC2)c1N [Compound 1653] and say whether its IC50 is less than 20 nM.
Marked response: true (1)

Exam item: Take the compound CCOc1ccc2ncc(-c3nn(C(C)(C)C)c(N)c3C(N)=O)cc2c1 [Compound 1654] and say whether its IC50 is less than 20 nM.
Marked response: false (0)

Exam item: Take the compound CC(C)(C)n1nc(-c2ccc3cc(O)ccc3c2)c(C(N)=O)c1N [Compound 24] and say whether its IC50 is less than 20 nM.
Marked response: true (1)

Exam item: Take the compound NC(=O)c1c(-c2ccc3ccccc3c2)nn(CC2CCNCC2)c1N [Compound 6] and say whether its IC50 is less than 20 nM.
Marked response: false (0)

Exam item: Take the compound CN1CCC(n2nc(-c3ccc4ccccc4c3)c(C(N)=O)c2N)CC1 [Compound 20] and say whether its IC50 is less than 20 nM.
Marked response: true (1)

Exam item: Take the compound CCOc1ccc2cc(-c3nn(C4CCCCCC4)c(N)c3C(N)=O)cnc2c1 [Compound 1604] and say whether its IC50 is less than 20 nM.
Marked response: true (1)

Exam item: Take the compound CCOc1ccc2cc(-c3nn(C4CCCC4)c(N)c3C(N)=O)cnc2c1 [Compound 1605] and say whether its IC50 is less than 20 nM.
Marked response: true (1)

Exam item: Take the compound CCOc1ccc2cc(-c3nn(CC(C)(C)O)c(N)c3C(N)=O)cnc2c1 [Compound 1641] and say whether its IC50 is less than 20 nM.
Marked response: false (0)

----------
Target: CpCDPK1 (Cryptosporidium parvum (strain Iowa II), UniProt A3FQ16)
Experiment: biochemical
Conditions: Table 1; KinaseGlo, Syntide 2 peptide substrate; read-out: CpCDPK1 IC50
Please go through the items and note down their log10 IC50.
Hey, these are logged values: log10 of IC50, nM being the unit before logging.

Exam item: What does the record list as log10 IC50 for CCOc1ccc2cc(-c3nn(CCO)c(N)c3C(N)=O)cnc2c1 ?
Marked response: 1.95

Exam item: What does the record list as log10 IC50 for NC(=O)c1c(-c2ccc3ccccc3c2)nn(CC2CC2)c1N ?
Marked response: 1.00

Exam item: What does the record list as log10 IC50 for CCOc1ccc2cc(-c3nn(C(C)(C)C)c4ncnc(N)c34)ccc2c1 [Compound 4, reference compound] ?
Marked response: 1.63

Exam item: What does the record list as log10 IC50 for CC(C)(C)COc1ccc2cc(-c3nn(C(C)(C)C)c(N)c3C(N)=O)cnc2c1 ?
Marked response: 2.69

Exam item: What does the record list as log10 IC50 for CCOc1ccc2cc(-c3nn(CC4CCN(C)CC4)c(N)c3C(N)=O)ccc2c1 ?
Marked response: 0.95

Exam item: What does the record list as log10 IC50 for CCOc1ccc2cc(-c3nn(C(C)C)c(N)c3C(N)=O)cnc2c1 ?
Marked response: 0.70

Exam item: What does the record list as log10 IC50 for CC(C)(C)n1nc(-c2ccc3nc(OC4CCC4)ccc3c2)c(C(N)=O)c1N ?
Marked response: 0.78

Exam item: What does the record list as log10 IC50 for CCOc1ccc2cc(-c3nn(C(C)C(C)O)c(N)c3C(N)=O)cnc2c1 (centres unmarked) ?
Marked response: 0.78

Exam item: What does the record list as log10 IC50 for CCOc1ccc2cc(-c3nn(C4(C)CCCCC4)c(N)c3C(N)=O)cnc2c1 ?
Marked response: 0.78

Exam item: What does the record list as log10 IC50 for CCOc1ccc2cc(-c3nn(CCOC)c(N)c3C(N)=O)cnc2c1 ?
Marked response: 2.24

Exam item: What does the record list as log10 IC50 for CN1CCC(Cn2nc(-c3ccc4ccccc4c3)c(C(N)=O)c2N)CC1 ?
Marked response: 1.23

Exam item: What does the record list as log10 IC50 for CCOc1ccc2cc(-c3nn(C(C)C(C)(C)CO)c(N)c3C(N)=O)cnc2c1 (centres unmarked) ?
Marked response: 0.60

Exam item: What does the record list as log10 IC50 for COc1ccc2cc(-c3n[nH]c(N)c3C(N)=O)ccc2c1 ?
Marked response: 1.68

Exam item: What does the record list as log10 IC50 for CCOc1ccc2nc(-c3nn(C(C)(C)C)c(N)c3C(N)=O)ccc2c1 ?
Marked response: 2.59

Exam item: What does the record list as log10 IC50 for CC(C)(C)n1nc(-c2cnc3cc(OC4CCC4)ccc3c2)c(C(N)=O)c1N ?
Marked response: 0.60

Exam item: What does the record list as log10 IC50 for COCCOc1ccc2cc(-c3nn(C(C)(C)C)c(N)c3C(N)=O)cnc2c1 ?
Marked response: 2.41

Exam item: What does the record list as log10 IC50 for CC(C)(CO)Cn1nc(-c2cnc3cc(OC4CCC4)ccc3c2)c(C(N)=O)c1N ?
Marked response: 0.70

Exam item: What does the record list as log10 IC50 for NC(=O)c1c(-c2ccc3ccccc3c2)nn(C2CCCCC2)c1N ?
Marked response: 1.20

Exam item: What does the record list as log10 IC50 for CC(C)(C)n1nc(-c2cnc3ccccc3c2)c(C(N)=O)c1N ?
Marked response: 0.85

Exam item: What does the record list as log10 IC50 for CCOc1ccc2cc(-c3nn(C(CO)CO)c(N)c3C(N)=O)cnc2c1 ?
Marked response: 1.72

Exam item: What does the record list as log10 IC50 for CCOc1ccc2cc(-c3nn(CC(F)(F)F)c(N)c3C(N)=O)cnc2c1 ?
Marked response: 0.70

Exam item: What does the record list as log10 IC50 for CCOc1ccc2cc(-c3n[nH]c(N)c3C(N)=O)cnc2c1 ?
Marked response: 1.83

Exam item: What does the record list as log10 IC50 for CCOc1ccc2cc(-c3nn(CC4CC4)c(N)c3C(N)=O)cnc2c1 ?
Marked response: 0.70

Exam item: What does the record list as log10 IC50 for CCOc1ccc2cc(-c3nn(C4CCOC4)c(N)c3C(N)=O)ccc2n1 (centres unmarked) ?
Marked response: 0.48

Exam item: What does the record list as log10 IC50 for CCOc1ccc2cc(-c3nn(C4CCCCCC4)c(N)c3C(N)=O)ccc2n1 ?
Marked response: 0.78

Exam item: What does the record list as log10 IC50 for Cn1ncc2cc(-c3nn(C(C)(C)C)c(N)c3C(N)=O)ccc21 ?
Marked response: 2.18

Exam item: What does the record list as log10 IC50 for CCCOc1ccc2cc(-c3nn(C(C)(C)C)c(N)c3C(N)=O)ccc2c1 ?
Marked response: 1.00

Exam item: What does the record list as log10 IC50 for CCOc1ccc2cc(-c3nn(C(C)C(C)(C)O)c(N)c3C(N)=O)cnc2c1 (centres unmarked) ?
Marked response: 1.11

Exam item: What does the record list as log10 IC50 for CC(C)(C)n1nc(-c2ccc3oc(=O)ccc3c2)c(C(N)=O)c1N ?
Marked response: 2.30

Exam item: What does the record list as log10 IC50 for NC(=O)c1c(-c2cnc3cc(OC4CCC4)ccc3c2)nn(C2CCCC2)c1N ?
Marked response: 0.60

Exam item: What does the record list as log10 IC50 for CC(C)(C)n1nc(-c2ccc3ccccc3n2)c(C(N)=O)c1N ?
Marked response: 2.46

Exam item: What does the record list as log10 IC50 for CCOc1ccc2cc(-c3nn(C4CCCCC4)c(N)c3C(N)=O)cnc2c1 ?
Marked response: 0.70

Exam item: What does the record list as log10 IC50 for CC(C)n1nc(-c2ccc3ccccc3c2)c(C(N)=O)c1N ?
Marked response: 0.85

Exam item: What does the record list as log10 IC50 for NC(=O)c1c(-c2ccc3ccccc3c2)nn(CCO)c1N ?
Marked response: 1.32
